experiment: NCI Yeast Anticancer Drug Screen. Data for the sgs1 strain (AID 173);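 note: 0% = growth of vehicle-only control cultures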; conditions: S. cerevisiae sgs1 mutant, at 1.2 µM, hits give high values
The panel holds about 79,000 compounds, 15% with a hit somewhere; the sample as a whole holds those more often.
MEASURED_QUANTITY: growth inhibition (%)
Supply the numeric figure in %, leaving out any unit text.

Worked examples follow.
1) C[Si](C)(C)/C=C/CCNC(C#N)c1ccccc1 (stereo not given)
-19
2) N#CC1=C(N)N(/N=C/c2ccccc2)C(c2ccccc2)C1(C#N)C#N (stereo not given)
15
3) CN(C)CCCCN1c2ccccc2Sc2ccc(N=[N+]=[N-])cc21
10

Q: Fill blank: measured growth inhibition of the compound `CC(C)OC(=O)c1ccc(CCc2cc(O)c(Br)cc2O)cc1` is ____.
Ans: 47

Q: Another compound to look at: `NC(=O)C(=O)NNc1ccccc1`
Ans: 3

Q: What about this compound? CC1SC2(C(=O)Nc3ccc(Cl)cc32)N(c2ccc(Cl)cc2)C1=O (stereo not given)
Ans: -2

Q: Continue with `CCCCc1ccc(-n2c(C)c(COC(=O)NC)c(COC(=O)NC)c2C)cc1`
Ans: -3
